# TARGET_OR_TEST_SYSTEM: recombinant neuraminidase (rNA) from B/Malaysia/2506/04 (influenza B virus B/Malaysia/2506/04)
pKd: −log10 of the molar value.
PROPERTY_NAME: pKd

binder="recombinantly expressed 1F2 monomeric IgA (antibody, V domains shown) VH: QVHLQQSGPEVARPGASVKLSCKASGYTFTDYYLNWVKQRPRQGLEWIGQIHPGSTNTYYNEKFKGKATLTADKSSSTAYMQLSSLTFEDSAVYFCAISLGDGYYVYAMVCWGQGTAVTVSS VL: DIVMTQSQKFMSTSVGDRVSVTCKASQNVVTNVVWYQQKPGQSPKPLIYSASYRYSGVPDRFTGSGSGTDFTLTISNVQSEDLAEYCCQQYHSYPFTFGSGTKLEVK" endpoint_result=9.02
